- target.system: T1, cyno CD3e (Macaca fascicularis (cynomolgus monkey), UniProt Q95LI5)
- T1 construct: not described; also called cynomolgus CD3ε; cynomolgus CD3
- T1 sequence (CD3 epsilon, looked up): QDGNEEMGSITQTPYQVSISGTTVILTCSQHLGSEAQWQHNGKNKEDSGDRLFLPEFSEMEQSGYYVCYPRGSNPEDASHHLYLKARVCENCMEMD
- assay.details: kinetic Kd determination of the expressed scFv, method not named
experimental.endpoint: kon (M⁻¹ s⁻¹)
Numeric answer only, unit M⁻¹ s⁻¹ assumed.

Problem: Please give the measured kon for this binder: Anti-CD3, clone 2G5 (scFv, Expressed in Expi293 from the pcDNA3.4 His6 vector) scFv: EVQLVESGGGLVQPGGSLKLSCAASGFTFNKYALNWVRQAPGKGLEWVARIRSKYNNYATEYADSVKDRFTISRDDSKNTAYLQMNNLKTEDTAVYYCVRHGNFGNSPISYWAYWGQGTLVTVSSGGGGSGGGGSGGGGSQTVVTQEPSLTVSPGGTVTLTCGSSTGAVTSGNYPNWVQQKPGQAPRGLIGGTNFLAPGTPERFSGSLLGGKAALTLSGVQPEDEAEYYCVLWYSNRWAFGGGTKLTVLHHHHHH
Solution: 964000
